- Tested on: HOP-92 NSCLC
- PROTOCOL_SUMMARY: NCI tumour cell line growth inhibition, 48 h
Kindly supply the reported TGI values for the records listed here.
One number for each entry, in µM.

Previously resolved entries follow.
# COMPOUND, ENDPOINT, QUANTITATIVE_RESULT
rows = [
    ("Clc1cccc(/C=c2\\nc(-c3ccccc3)n3c2nc2ccccc23)c1", "TGI", 48.4),
    ("c1ccc(C[N+]23C(CC[C@H]2c2ccccc2)CC[C@H]3c2ccccc2)cc1 (stereo partly drawn)", "TGI", 52.3),
    ("C=C(C)[C@@H]1CC[C@]2(COC(=O)c3ccccc3C(=O)O)CC[C@]3(C)[C@H](CC[C@@H]4[C@@]5(C)CC[C@H](OC(=O)c6ccccc6C(=O)O)C(C)(C)[C@@H]5CC[C@]43C)[C@@H]12", "TGI", 64.5),
]

I need TGI for every entry listed below, if you could help.
1. Cc1ccc([N+](=O)[O-])cc1S(=O)(=O)Nc1ccc(C2=NN(C(=O)c3ccccc3)C(c3ccccc3O)C2)cc1 (stereo not drawn)
2. COC(=O)[C@]12CC[C@@H](C)[C@H](C)[C@@H]1C1=CC[C@@H]3[C@@]4(C)C(C=O)=C[C@@](C)(COC(=O)c5ccco5)C4=CC[C@@]3(C)[C@]1(C)CC2
3. CCOC(=O)/C=C(\C(=O)OCC)n1cc(C)c(=O)n(Cc2cn(COCCOC(C)=O)nn2)c1=O

1: 26.4; 2: 7.71; 3: 3.91

###

- Tested on: HL-60(TB) leukemia
- PROTOCOL_SUMMARY: NCI tumour cell line growth inhibition, 48 h
For each record, write down the corresponding log10 of TGI.
// do not treat as linear: log10 of TGI, unit µM

# count of solved cases: 5
# COMPOUND, log10 of TGI
data = [
    ("NCCNc1nc2ccc(F)cc2c2c(=O)c3cc(F)ccc3sc12", 0.72),
    ("Nc1csc(-c2scc3c2OCCO3)c1N", 1.71),
    ("c1ccc(C[N+]23C(CC[C@H]2c2ccccc2)CC[C@H]3c2ccccc2)cc1 (stereo not given in full)", 1.76),
    ("CCC1C[N+]2=C(c3cc(OC)c(OC)cc3CC2)c2c1cc1n2CCc2cc(OC)c(OC)cc2-1 (stereo not given)", 1.00),
    ("CCOC(=O)c1cccc(N=Nc2ncc(/C=C/C(=O)OC)[nH]2)c1", 1.48),
]

# get_value(readout= log10 of TGI, system= HL-60(TB) leukemia) for "COc1ccc(OC)c(-c2nc3sc(C)cn3c2/C=C2\C(=O)N(C)c3ccccc32)c1"
1.50

###

- System: COLO 205 colon
- PROTOCOL_SUMMARY: NCI tumour cell line growth inhibition, 48 h; in the data active = GI50 below about 0.43 µM; inactive = the rest
The reply should be one of these categories: active, inactive

Worked set:
# COMPOUND, GROUP
data = [
    ("Nc1n[nH]c2cc(F)c([C@@H]3Nc4c(F)cc5[nH]ncc5c4[C@H]4C5CCC(C5)[C@@H]34)cc12 (stereo not given in full)", "active"),
    ("C=CC(=O)OCCCS(=O)(=O)[O-].C=CC(=O)OCCCS(=O)(=O)[O-].NC1CCCCC1N.[Pt+4]", "inactive"),
    ("COc1cc(NC(=O)c2cc3ccccc3cc2O)c(OC)cc1Cl", "inactive"),
    ("CCN(CC)CCC(CNc1c(C)cnc2cc(Cl)ccc12)c1ccc(Cl)c(Cl)c1 (stereo not given)", "inactive"),
]

Entry "O=C1c2ccccc2-c2c1c1ccc([N+](=O)[O-])cc1c(=O)n2CCN1CCOCC1" : call = ?
inactive

###

Give TGI for every item shown.
- Test system: MCF7 breast
- PROTOCOL_SUMMARY: NCI tumour cell line growth inhibition, 48 h

Worked cases, TGI given:
# INPUT_SMILES, TGI
records = [
    ("CN1CCN(c2ccc3nc(-c4ccc5nc(CCCc6ccc(N(CCCl)CCCl)cc6)[nH]c5c4)[nH]c3c2)CC1", "> 100 µM"),
    ("O=c1oc2ccccc2c(O)c1Cc1ccccc1Cc1c(O)c2ccccc2oc1=O", "> 100 µM"),
    ("CN(C)c1ccc(/C=C2\\C[C@H]3[C@@H]4CC=C5C[C@@H](O)CC[C@]5(C)[C@H]4CC[C@]3(C)[C@H]2O)cc1", "34.4 µM"),
    ("COc1ccc(C(=O)c2cc(C)c(OC)c(C)c2)c(OC)c1OC(=O)C(Cl)Cl", "> 100 µM"),
    ("Oc1c(O)c(Cc2ccccc2)c(Cc2ccccc2)c(Cc2ccccc2)c1Cc1ccccc1", "> 10 µM"),
]

I need TGI for every entry listed below, if you could help.
1. Oc1ccc(Cl)cc1C1=Nn2c(COc3ccc4c(c3)CCCC4)nnc2SC1
2. COC(OC)[C@@H]1OC[C@H](n2ccc(=O)[nH]c2=O)[C@H]1O
3. O=C(NN1CCCCC1)c1cc2cc(CCl)ccc2oc1=O
4. COc1cc2c3c(n(CCCN=[N+]=[N-])c(=O)c2cc1OC)-c1ccc(NC(C)=O)cc1C3=O

32.5 µM
> 100 µM
> 100 µM
> 50 µM

###

- System: TK-10 renal
- PROTOCOL_SUMMARY: NCI tumour cell line growth inhibition, 48 h
Could you please report measured TGI for the items listed next?

Solved cases below.
# COMPOUND, ASSAY_TARGET, TGI
data = [
    ("CC1(C)CC(C(=O)OCCCCCCCCCCC[P+](c2ccccc2)(c2ccccc2)c2ccccc2)C(C)(C)N1O (stereo not drawn)", "TK-10 renal", "1.67 µM"),
    ("O=C1/C(=C\\c2cccc(Oc3ccccc3)c2)SC(c2ccccc2)N1Cc1ccccc1 (stereo not drawn)", "TK-10 renal", "99.5 µM"),
    ("FC(F)(F)c1nc2c(ccc3[nH]c4c(-c5ccccc5)nccc4c32)[nH]1", "TK-10 renal", "> 100 µM"),
    ("CN(CCN1C(=O)c2cccc3cccc(c23)C1=O)CCN1C(=O)c2cccc3cccc(c23)C1=O", "TK-10 renal", "27.7 µM"),
    ("CC(=O)O[C@H]1C(=O)[C@@]2(C)[C@H]([C@H](OC(=O)c3ccccc3)[C@]3(O)C[C@H](OC(=O)[C@H](O)[C@@H](NC(=O)C(C)(O)C(C)O)c4ccccc4)C(C)=C1C3(C)C)[C@]1(OC(C)=O)CO[C@@H]1C[C@@H]2O (stereo partly drawn)", "TK-10 renal", "> 50 µM"),
]

Batch request: TGI for each of the following compounds.
1. O=C(c1ccccc1)N1CCC(Nc2cccnc2)O1 (stereo not drawn)
2. Fc1c(F)c(F)c(CSc2nc3ccccc3[nH]2)c(F)c1F

> 100 µM
> 100 µM

Fill in the blank: the reported TGI of "CCOC(=O)COc1cc(-c2ccccc2)nc2cc(F)ccc12" is ____.
> 100 µM

###

- Test system: NCI-H23 lung
- PROTOCOL_SUMMARY: NCI tumour cell line growth inhibition, 48 h; in the data active = GI50 below about 0.43 µM; inactive = the rest
Answer with one of the outcomes given here: active, inactive

Here are 5 molecules together with their reported answers.
# MOLECULE, ASSAY_TARGET, GROUP
records = [
    ("CCC1C[N+]2=C(c3cc(OC)c(OC)cc3CC2)c2c1cc1n2CCc2cc(OC)c(OC)cc2-1 (stereo unspecified)", "NCI-H23 lung", "inactive"),
    ("COc1ccc2c(ccc3oc([N+](=O)[O-])cc32)c1", "NCI-H23 lung", "active"),
    ("Fc1cccc(-c2nc(-c3c[nH]c4ncccc34)cs2)c1", "NCI-H23 lung", "inactive"),
    ("O=C1c2ccccc2-c2c1c1ccc3ccccc3c1n2-c1ccccc1", "NCI-H23 lung", "inactive"),
    ("N#Cc1cc2c(=S)[nH]c(=S)[nH]c2nc1SCc1ccccc1", "NCI-H23 lung", "inactive"),
]

Given "COC(=O)[C@]12CC[C@@H](C)[C@H](C)[C@@H]1C1=CC[C@@H]3[C@@]4(C)C(C=O)=C[C@@](C)(COC(=O)c5ccco5)C4=CC[C@@]3(C)[C@]1(C)CC2" , state the outcome it received in this test.
inactive

###

Kindly state TGI for each of the entries shown.
- System: SF-539 CNS
- PROTOCOL_SUMMARY: NCI tumour cell line growth inhibition, 48 h

Worked cases, TGI given:
# COMPOUND, ASSAY_TARGET, RESULT
records = [
    ("COc1ccc(-n2nc(C(=O)NCC(=O)Nc3nc4cc(OC)ccc4s3)c3ccccc3c2=O)cc1", "SF-539 CNS", "1.27 µM"),
    ("CC(C)C1COC(C(C)(C)C2=N[C@@H](C(C)C)CO2)=N1 (stereo partly specified)", "SF-539 CNS", "> 100 µM"),
    ("CC1=C(c2ccccc2)CON(c2ccccc2)C1", "SF-539 CNS", "> 100 µM"),
    ("C#CCOCn1cnc2c(N)ncnc21", "SF-539 CNS", "> 100 µM"),
    ("CCOC(=O)c1cccc(N=Nc2ncc(/C=C/C(=O)OC)[nH]2)c1", "SF-539 CNS", "> 100 µM"),
]

Now consider a different compound.
Consider the compound shown here: CN1C(CC(O)c2ccccc2)CCCC1CC(O)(c1ccccc1)c1ccccc1 (stereo unspecified) What is its recorded TGI?
27.3 µM
